test: Cytotoxicity testing in MRC-5 cells; format: cell-based, human; settings: human, 6 days incubation, CellTiter 96, read-out: % Cell viability

| cpdSmiles | unitTag | viability at 144 h |
| --- | --- | --- |
| NCC(=O)N1CCC[C@H]1C(=O)N[C@@H](CCC(=O)O)C(=O)O | % | 100 |

====

test: Cytotoxicity in the HBV assay (dye uptake cell viability); assay type: cell-based; settings: human, HepG2-2.2.15 cells, peptide 10 micrograms per ml, % cell control
valueKind: viability at 144 h, 10 micrograms per ml (%)

| cpdSmiles | valueKind | observedMeasurement |
| --- | --- | --- |
| NCC(=O)N1CCC[C@H]1C(=O)N[C@@H](CCC(=O)O)C(=O)O | viability at 144 h, 10 micrograms per ml | 98.2 |
